Details: buffer; pH 7.4; 200.0 µM
assay_metric: solubility kinetic (µg/mL)
# unit: µg/mL | format: bare number

Fill blank: measured solubility kinetic of the molecule O=C(CSc1ncnc2sc3c(c12)CCCC3)NC1CCS(=O)(=O)C1 (stereo not given) is ____. 18.6

Form field: reported solubility kinetic of "O=c1cc(NC2CCCCC2)[nH]c(=O)[nH]1" 13.1

May I ask what solubility kinetic has been recorded for "CCC(=O)Nc1cccc(C(=O)N(Cc2ccccc2)Cc2ccccc2)c1" ? 22.2

Consider the molecule shown here: "Cc1ccc(Cn2c(=O)oc3ccccc32)cc1" What is its recorded solubility kinetic? 1

Please give the measured solubility kinetic for this molecule: "CN(c1ccc(O)cc1)c1nc(-c2cccnc2)cs1" 3.2

Next:
Requested read-out: solubility kinetic. Entry: "O=C(NCc1ccccc1)c1ccc2c(c1)C(=O)N(Cc1cccnc1)C2=O" 38.1

Can you share its solubility kinetic? I mean this molecule: "Cc1cccn2c(=O)c(C=O)c(N3CCSCC3)nc12" 16.2

###

Settings: buffer; pH 7.4; 200.0 µM
assay_metric: log10 solubility kinetic (log10 of the value in µg/mL)
Remember, log10 of solubility kinetic, in µg/mL.

Would you please look over these solved cases?
Please look up its log10 solubility kinetic: "O=c1nc(SCc2c(F)cccc2Cl)nc(-c2ccccc2)[nH]1" 0.61

Fill blank: measured log10 solubility kinetic of the compound "O=C(NCC(=O)N1CCN(C/C=C/c2ccccc2)CC1)c1ccc(Br)cc1" is ____. 1.19

Value lookup for log10 solubility kinetic; key = "CN(C(=O)c1ccc2c(c1)CCO2)C(C)(C)C" 1.38

Look up log10 solubility kinetic: O=C(c1ccc(F)cc1)C(Cc1ccccc1)N1CCCCC1 (configuration not stated) 1.12

Attention now turns to another entry.
Entry "Cc1ccc2c(c1)N(CC(=O)Nc1nccs1)C(=O)CO2" : reported log10 solubility kinetic = ? 0.11

###

Conditions: buffer; pH 7.4; 200.0 µM
Each record here notes measured solubility kinetic.
Quick note: give the figure in µg/mL, leave out the unit.

# lookup: solubility kinetic of O=C(NC1CCCc2ccccc21)c1ccc(F)cc1F (centres undefined) 10.9

What measured solubility kinetic goes with "COc1ccnc2c1c(=O)n(Cc1ccc(Cl)cc1)c(=O)n2C" ? 9.3

Return reported solubility kinetic; argument: "CC(C)(C)N(Cc1cc2ccccc2[nH]c1=O)C(=O)c1ccco1" 2.9

Look up solubility kinetic: "Fc1ccc(NC(=S)N2CCc3ccccc32)cc1" 3.1

Bench note: what solubility kinetic did "CCc1cc2c(=O)n(-c3ccccc3)c(SCC(N)=O)nc2s1" show? 2.8

Continuing:
Using the record for "CCOC(=O)N1CCN(C(=O)c2cc3cc(F)ccc3[nH]2)CC1" , report its solubility kinetic. 40.5

###

Settings: buffer; pH 7.4; 200.0 µM
assay_metric: solubility kinetic (µg/mL)
The response must be a number in µg/mL with no trailing unit.

Give the measured solubility kinetic of "O=S(=O)(c1ccc(Cl)cc1)N1CCN(CCc2ccncc2)CC1" . 18.3

Please give the measured solubility kinetic for this compound: "COCc1nc2oc3ccccc3c(=O)c2cc1C(=O)OC" 19.7

I have this compound here, "COC(=O)c1ccc(NC(=S)NCCc2ccc(OC)cc2)cc1" , and I need its recorded solubility kinetic. 0.8

Need solubility kinetic of "Fc1cccc(Nc2nc(Cl)nc(Cl)n2)c1" , thanks. 36.2

For the compound shown here, "CCCNC(=O)c1noc2c1CCc1cc(OC)ccc1-2" , give the reported solubility kinetic. 5.6

Returns the measured solubility kinetic for the input compound. Input: "COc1ccc2oc(C(=O)OCC(=O)NC3CC3)c(C)c2c1" 10.3

Which solubility kinetic value belongs to "COc1ccc(NC(=O)C2CCC2)cc1S(=O)(=O)Nc1cc(C)ccc1Br" ? 1.1

Quick check: solubility kinetic of "CC(C)C(=O)Nc1csc(C(F)(F)F)c1-c1ccccc1" ? 12.8

Please look up its solubility kinetic: CCc1ccc(C(C)NC(=S)NCc2ccc(F)cc2)cc1 (centres undefined) 1

###

Conditions: buffer; pH 7.4; 200.0 µM
Below, each of the compounds is paired with its reported solubility kinetic value.

solubility kinetic for "CCOC(=O)c1sc(=S)n(CC)c1NC(=O)c1ccccc1" ? 8.8 µg/mL

Here's the next entry for you.
Reported solubility kinetic for "N#Cc1cccc(NC(=O)CN2CCCCCC2)c1" : what is it? > 38.6 µg/mL

###

Conditions: buffer; pH 7.4; 200.0 µM
assay_metric: solubility kinetic

Some compounds with recorded solubility kinetic:
What value of solubility kinetic has been reported for the following compound? "COc1ccc(CN2C(=O)c3cccc4cccc(c34)C2=O)cc1" 0.9 µg/mL

Would you kindly share the measured solubility kinetic for "O=[N+]([O-])c1ccc(OCc2cnc(Cl)s2)cc1" ? 5.6 µg/mL

Please look up its solubility kinetic: "Cc1c(C#N)c(NC(=O)C(C)C)n(Cc2ccccc2)c1C" 8.1 µg/mL

GET /values?readout=solubility kinetic&item= "O=C(Cc1ccc([N+](=O)[O-])cc1)c1c(O)cc(O)cc1O" > 43.4 µg/mL

// returns reported solubility kinetic for input "O=C(COc1ccccc1[N+](=O)[O-])NC1CC1" 29.1 µg/mL

---
Value lookup for solubility kinetic; key = "Cc1cc(C)cc(NC(=O)C2CCN(S(C)(=O)=O)CC2)c1" 38.8 µg/mL

Look at this compound and give its reported solubility kinetic. "S=C(NCc1ccco1)N1CCN(C/C=C/c2ccccc2)CC1" > 51.2 µg/mL

For the compound "CCOC(=O)C1CCN(C(=O)c2[nH]c3ccc(OC)cc3c2C)CC1" , what solubility kinetic is on record? 48.3 µg/mL

Given the entry O=C(Cc1ccc(Br)cc1)NC1CCCc2ccccc21 (centres undefined) , report its measured solubility kinetic. 1.5 µg/mL

###

Settings: buffer; pH 7.4; 200.0 µM
Given measured solubility kinetic, output YES if it is greater than or equal to 0.04 mg/mL and NO if not.

Example results:
Exam item: decide whether the reported solubility kinetic for "Cc1cc(NC(=O)CC(C)C)c(=O)n(Cc2ccccc2F)c1" is at least 0.04 mg/mL. NO

In plain terms: is recorded solubility kinetic at least 0.04 mg/mL for "CCOc1ccccc1NC(=O)N1CCCN(c2ncccc2C#N)CC1" ? YES

In plain terms: is recorded solubility kinetic at least 0.04 mg/mL for O=C(O)CC(c1ccccc1)N1C(=O)c2ccccc2C1=O (configuration not stated) ? YES

Quick check, solubility kinetic >= 0.04 mg/mL? "COc1ccc(CCN(C)C(=O)c2ccc3c(=O)n4c(nc3c2)CCCCC4)cc1OC" YES

Dear colleague, could you confirm whether "CCOc1ccc2[nH]c(C)c(CN3CCCCCC3)c(=O)c2c1" has solubility kinetic at or above 0.04 mg/mL? YES

Does the reported solubility kinetic for "COc1ccc(C(=O)O/N=C(\N)c2cccc(C)c2)cc1OC" fall at or above the 0.04 mg/mL mark? NO

Others:
Quick check: does "CC1CCN(Cc2cc(=O)oc3ccc4ccccc4c23)CC1" have solubility kinetic greater than or equal to 0.04 mg/mL? NO

Determine whether measured solubility kinetic meets or exceeds 0.04 mg/mL for Cc1c(C(=O)NC2CCC(C)CC2)oc2ccccc12 (configuration not stated) NO

Does the reported solubility kinetic for "CC(=O)Nc1c2c(nn1-c1cccc(Cl)c1)CS(=O)(=O)C2" fall at or above the 0.04 mg/mL mark? YES

Quick check: does CC(C)CC1(C)NC(=O)N(CC(=O)Nc2ccccc2Br)C1=O (configuration not stated) have solubility kinetic greater than or equal to 0.04 mg/mL? YES

Evaluate "Cc1cccc(NC(=O)CCC(=O)c2cccs2)n1" : solubility kinetic at minimum 0.04 mg/mL? YES

###

Conditions: buffer; pH 7.4; 200.0 µM
Collected solubility kinetic values appear next to each entry.

Guide cases for solubility kinetic, answers given:
Quick check: solubility kinetic of "CC(=O)N(CCc1cccc(C)c1)Cc1cc2ccc(C)cc2[nH]c1=O" ? 5.1 µg/mL

I'd like to know its solubility kinetic. The compound in question is "Cc1cccc(NS(=O)(=O)c2ccc3[nH]c(=O)oc3c2)c1C" 41.9 µg/mL

Query (compound): "Nc1ncnc2c1nc(Br)n2[C@@H]1O[C@@H]2COP(=O)([O-])O[C@H]2[C@H]1O.[Na+]" ; field requested: solubility kinetic > 64.5 µg/mL

Kindly consider the entry below.
Look at this compound and give its reported solubility kinetic. "Cc1c(C(=O)O)oc2ccc(S(=O)(=O)N3CCCC3)cc12" > 46.4 µg/mL

###

Reported solubility kinetic is given for each of the following compounds.
Settings: buffer; pH 7.4; 200.0 µM
Reply numerically in µg/mL, unit not repeated.

Use these answered entries as a reference point.
Quick check: solubility kinetic of "O=C(Cc1ccc(Cl)cc1)NCC(=O)N1CCCCC1" ? 39.7

For the compound shown here, "CCOc1ccc(Cl)cc1/C=C1/C(=O)ON=C1C" , give the reported solubility kinetic. 29.3

Which solubility kinetic is reported for this compound? "CC(C)n1c(O)c(C=NCc2ccccc2)c(=O)[nH]c1=S" 19.6

---
Look up solubility kinetic: "O=C(COc1ccc(F)cc1)Nc1ccc2c(c1)OCCO2" 7.9
